# tested-on: T1, mouse serum albumin (MSA), full length (mouse, UniProt P07724 25-608)
# T1 construct: mature; Immobilized on CM5 chip (SPR) or coated on plates (ELISA); also called mouse albumin; murine serum albumin
# procedure-details: SPR kinetics, immobilized albumin, 1:1 fit, 37 C
Kindly state kon for each of the entries shown.
Only the number, expressed in M⁻¹ s⁻¹, is required.

# input Which value of kon has been reported for ADX_7016_C03 (Y44Q) (designed binder, Full His6-tagged entry; also called 6727_B03) MGVSDVPRDLEVVAATPTSLLISWDAPAVTVRYYRITYGREVQKYSDLGPLYIQQEFTVPGSKSTATISGLKPGVDYTITVYAVTGSGESPASSKPISINYRTEIDKPSQHHHHHH in the records?
# output 115000

# input Which value of kon has been reported for ADX_7016_E02 (L38T) (designed binder, Full His6-tagged entry; also called 6727_E08) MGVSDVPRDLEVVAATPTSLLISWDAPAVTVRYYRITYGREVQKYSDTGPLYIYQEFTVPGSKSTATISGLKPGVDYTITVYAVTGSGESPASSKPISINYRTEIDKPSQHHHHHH in the records?
# output 68400

# input Which value of kon has been reported for ADX_7016_G01 (Y44S) (designed binder, Full His6-tagged entry; also called 6727_G02) MGVSDVPRDLEVVAATPTSLLISWDAPAVTVRYYRITYGREVQKYSDLGPLYISQEFTVPGSKSTATISGLKPGVDYTITVYAVTGSGESPASSKPISINYRTEIDKPSQHHHHHH in the records?
# output 235000

# input Which value of kon has been reported for ADX_7016_A01 (parent PKE2 Adnectin) (designed binder, N-terminal Met may be cleaved; also called 2629_E06; ADX_2629_E06) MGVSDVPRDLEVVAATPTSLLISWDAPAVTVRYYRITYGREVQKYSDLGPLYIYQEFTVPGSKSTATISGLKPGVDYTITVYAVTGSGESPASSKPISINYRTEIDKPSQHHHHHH in the records?
# output 237000
